All values here come from PubChem BioAssay AID2060512.

Please provide measured viability, T/C for the entries that follow.
Tested on: 186277-243-T-J2-PDC complex spheroid viability;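 also: spheroids exposed to drugs for 7 days; 100% = DMSO vehicle control viability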
method notes: Anticancer human tumor 186277-243-T-J2-PDC patient-derived colon adenocarcinoma cell line growth inhibition [GQUAD]
condition set: second compound 0.316 µM; first compound 0.0316 µM; stronger effect = lower value
Hi! Could you send only the number? It should be in %, unit omitted.

State viability, T/C (186277-243-T-J2-PDC complex spheroid viability) of COc1ccc([C@@H](O)c2cc(-c3ncnc4cc(N5CCOCC5)ccc34)c(F)cc2Cl)nn1 + CN(C)c1ccc(Nc2c3ccc(NC(=O)CCN4CCCC4)cc3nc3cc(NC(=O)CCN4CCCC4)ccc23)cc1 .
95

Name the value of viability, T/C reported for CC(C)n1c(=O)n(C)c2cnc3cc(F)c(-c4ccc(OCCCN5CCCCC5)nc4)cc3c21 + Cc1cnc(CNC(=O)c2c(=O)c3ccc(N4CCCN(C)CC4)nc3n3c2sc2ccccc23)cn1 when tested on 186277-243-T-J2-PDC complex spheroid viability.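 Also: spheroids exposed to drugs for 7 days; 100% = DMSO vehicle control viability.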
67.8

Please look at Cn1ncnc1[C@H]1c2n[nH]c(=O)c3cc(F)cc(c23)N[C@@H]1c1ccc(F)cc1 + Cc1cnc(CNC(=O)c2c(=O)c3ccc(N4CCCN(C)CC4)nc3n3c2sc2ccccc23)cn1 and tell me its recorded viability, T/C on 186277-243-T-J2-PDC complex spheroid viability.
77

Determine reported viability, T/C for Cc1cccc(N(C)C(=O)C2C(O)CCN2c2nc(C)cc(C(F)(F)F)c2C#N)c1 (stereo unspecified) + CN(C)c1ccc(Nc2c3ccc(NC(=O)CCN4CCCC4)cc3nc3cc(NC(=O)CCN4CCCC4)ccc23)cc1 ; test system: 186277-243-T-J2-PDC complex spheroid viability.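 Also: spheroids exposed to drugs for 7 days; 100% = DMSO vehicle control viability.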
81

State the measured viability, T/C (186277-243-T-J2-PDC complex spheroid viability) of CC(C)(O)C1CCC(Nc2ccc3ncc(-c4cccc(C(F)(F)F)c4)n3n2)CC1 (stereo unspecified) + Cc1cnc(CNC(=O)c2c(=O)c3ccc(N4CCCN(C)CC4)nc3n3c2sc2ccccc23)cn1
55.5

Give viability, T/C for Cc1[nH]c2ccccc2c1CCNCc1ccc(/C=C/C(=O)NO)cc1 + Cc1cnc(CNC(=O)c2c(=O)c3ccc(N4CCCN(C)CC4)nc3n3c2sc2ccccc23)cn1 tested on 186277-243-T-J2-PDC complex spheroid viability.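 Also: spheroids exposed to drugs for 7 days; 100% = DMSO vehicle control viability.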
34.9

Tell me its viability, T/C on 186277-243-T-J2-PDC complex spheroid viability: CC1COCCN1c1cc(C2(O)CC3CCC(C2)O3)c2cnn(-c3ccn[nH]3)c2n1 (stereo unspecified) + CN(C)c1ccc(Nc2c3ccc(NC(=O)CCN4CCCC4)cc3nc3cc(NC(=O)CCN4CCCC4)ccc23)cc1
53.7

Determine reported viability, T/C for COc1cccc2c1C(=O)c1c(O)c3c(c(O)c1C2=O)CC(O)(C(=O)CO)CC3OC1CC(N)C(O)C(C)O1 (stereo unspecified) + Cc1[nH]c2ccc(F)cc2c1-c1nc2c3cccnc3c3ncccc3c2[nH]1 ; test system: 186277-243-T-J2-PDC complex spheroid viability.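 Also: spheroids exposed to drugs for 7 days; 100% = DMSO vehicle control viability.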
96.1

Tell me its viability, T/C on 186277-243-T-J2-PDC complex spheroid viability: CC[C@@]1(O)C(=O)OCc2c1cc1n(c2=O)Cc2cc3c(CN(C)C)c(O)ccc3nc2-1 + CN(C)c1ccc(Nc2c3ccc(NC(=O)CCN4CCCC4)cc3nc3cc(NC(=O)CCN4CCCC4)ccc23)cc1
81.4

Retrieve viability, T/C on 186277-243-T-J2-PDC complex spheroid viability; query O=c1[nH]cc(F)c(=O)[nH]1 + Cc1cnc(CNC(=O)c2c(=O)c3ccc(N4CCCN(C)CC4)nc3n3c2sc2ccccc23)cn1
76.8

Jot down viability, T/C (186277-243-T-J2-PDC complex spheroid viability) of CC1COCCN1c1cc(-c2ccnn2C)c2ccnc(-c3ccn[nH]3)c2n1 (stereo unspecified) + Cc1cnc(CNC(=O)c2c(=O)c3ccc(N4CCCN(C)CC4)nc3n3c2sc2ccccc23)cn1 .
46.5
